This collection of values is drawn from PubChem BioAssay (NCI).

Test system: HCT-116 colon
method: NCI tumour cell line growth inhibition, 48 h
Listing of entries alongside the reported TGI.

>  <molecule>
C=CC[C@]1(/C=N/O)CN(S(=O)(=O)CC[Si](C)(C)C)C[C@H]2CC=CC[C@H]21

>  <TGI>
27.3 µM

$$$$
>  <molecule>
COc1cc2c(cc1O)c(O)cc1c3cc(OC)c(OC)cc3c[n+](C)c21

>  <TGI>
> 100 µM

$$$$
>  <molecule>
CCCCC1(NN=C2CCCCC2)C(=O)N(c2ccccc2)N(c2ccccc2)C1=O

>  <TGI>
> 100 µM

$$$$
>  <molecule>
CC/C=C\C[C@H]1CC=C2C(=O)C=C[C@@H]2CC=CCCCC(=O)O[C@@H](CCCCC)CC=C2C(=O)C=C[C@@H]2CC=CCCCC(=O)O[C@@H](CCCCC)CC=C2C(=O)C=C[C@@H]2CC=CCCCC(=O)O[C@@H](CCCCC)CC=C2C(=O)C=C[C@@H]2CC=CCCCC(=O)O1

>  <TGI>
3.06 µM

$$$$
>  <molecule>
CCC[CH2][Sn]([CH2]CCC)([O]C(=O)CN)[O]C(=O)CN

>  <TGI>
> 100 µM

$$$$

(Q) GET TGI | system: HCT-116 colon | item: O=C(Oc1ccc[nH]c1=O)c1cc([N+](=O)[O-])cc([N+](=O)[O-])c1
(A) > 100 µM

(Q) Report its TGI with HCT-116 colon as the test system: N#CSCC(Cl)=CCl (mixture of isomers)
(A) > 100 µM

----------
Documented TGI across a set of compounds
Test system: SR leukemia
method: NCI tumour cell line growth inhibition, 48 h

// known answers, use as guide
>  <compound>
CC(=O)c1ccc(NC(=O)/C(CC(=O)c2sc(-c3cccnc3)nc2C)=N/NC(N)=O)cc1

>  <TGI>
> 100 µM

$$$$
>  <compound>
CNC1(c2cc3ccccc3s2)CCCCC1

>  <TGI>
67.3 µM

$$$$

(Q) Consider the compound CCCCCCCC(CC(=O)NC(CO)C(=O)NC(CO)CC(C)C)OC(=O)CC(CCCCCCC)OC(=O)CC(CCCCCCC)OC1OC(C)C(O)C(OC2OC(C)C(OC(C)=O)C(O)C2O)C1O (configuration not stated) tested on SR leukemia; state its TGI.
(A) 6.22 µM

(Q) Lab note: record TGI of CC1(C)N/C(=C\[N+](=O)[O-])C(C)(C)N1O tested on SR leukemia.
(A) > 10 µM

(Q) Give SR leukemia TGI for the following compound: CCOC(=O)/C=C(\C(=O)OCC)n1cc(C)c(=O)n(Cc2cn(CCCCOC(C)=O)nn2)c1=O
(A) 14.5 µM

(Q) Jot down TGI (SR leukemia) of Cc1ccc(S(=O)(=O)N=Nc2c(O)[nH]c3cc(O)c(C(=O)O)cc23)cc1 .
(A) > 100 µM

(Q) Report value: TGI, system: SR leukemia, compound: CCC(CC)NC1=C(NC(C)=O)C(=O)c2ccccc2C1=O
(A) > 50 µM

(Q) Tell me its TGI on SR leukemia: CCOC(=O)C(NC(=O)Nc1ccc(C)cc1)(OCC)C(F)(F)F (configuration not stated)
(A) > 100 µM

(Q) # return TGI of N[C@@H]1CCN(c2c(F)cc3c(=O)c(C(=O)O)cn4c3c2Oc2c-4ccc3c2ccc2ccccc23)C1 (system: SR leukemia)
(A) > 100 µM

(Q) Tell me its TGI on SR leukemia: N#CSCC(Cl)=CCl (mixture of isomers)
(A) > 100 µM

(Q) Provide the reported TGI (system: SR leukemia) for C[C@]12CC=CC(=O)[C@@]1(C)CCC(=O)C2
(A) > 100 µM

(Q) Report TGI from SR leukemia testing of COc1ccc(CC2COc3cc(OC)cc(OC)c3C2=O)cc1 (configuration not stated)
(A) 43.2 µM

(Q) Please look at Cc1ccc(C2(O)CSC(=NC34CC5CC(CC(C5)C3)C4)N2C(P(=O)(O)O)P(=O)(O)O)cc1 (configuration not stated) and tell me its recorded TGI on SR leukemia.
(A) > 100 µM

(Q) Report TGI on SR leukemia for this entry: CNC(=O)OCc1c(COC(=O)NC)c(-c2ccc(-c3ccccc3)cc2)n(C)c1C
(A) > 100 µM

(Q) Report measured TGI on SR leukemia; entry: CS(=O)(=O)CCNCc1coc(-c2ccc3ncnc(Nc4ccc(OCc5ccccc5)cc4)c3c2)c1
(A) 12.9 µM

(Q) Give reported TGI for COc1ccc(Cn2c(=O)c(OC)c(C)c3cc4ccccc4cc32)cc1 (SR leukemia)
(A) 57.5 µM

(Q) Recall the reported TGI of C/C(=N\NS(=O)(=O)c1ccc(C)cc1)c1ccccn1 when tested on SR leukemia.
(A) > 100 µM
